The values you see were collected from patent US20230117034A1.

Target: CDK12 (nuclear staining in CAL-120 cells) (Homo sapiens, UniProt Q9NYV4)
Construct: endogenous in cells; host or cells: CAL-120 human breast cancer cells (DSMZ ACC 459)
Sequence (Q9NYV4 whole entry): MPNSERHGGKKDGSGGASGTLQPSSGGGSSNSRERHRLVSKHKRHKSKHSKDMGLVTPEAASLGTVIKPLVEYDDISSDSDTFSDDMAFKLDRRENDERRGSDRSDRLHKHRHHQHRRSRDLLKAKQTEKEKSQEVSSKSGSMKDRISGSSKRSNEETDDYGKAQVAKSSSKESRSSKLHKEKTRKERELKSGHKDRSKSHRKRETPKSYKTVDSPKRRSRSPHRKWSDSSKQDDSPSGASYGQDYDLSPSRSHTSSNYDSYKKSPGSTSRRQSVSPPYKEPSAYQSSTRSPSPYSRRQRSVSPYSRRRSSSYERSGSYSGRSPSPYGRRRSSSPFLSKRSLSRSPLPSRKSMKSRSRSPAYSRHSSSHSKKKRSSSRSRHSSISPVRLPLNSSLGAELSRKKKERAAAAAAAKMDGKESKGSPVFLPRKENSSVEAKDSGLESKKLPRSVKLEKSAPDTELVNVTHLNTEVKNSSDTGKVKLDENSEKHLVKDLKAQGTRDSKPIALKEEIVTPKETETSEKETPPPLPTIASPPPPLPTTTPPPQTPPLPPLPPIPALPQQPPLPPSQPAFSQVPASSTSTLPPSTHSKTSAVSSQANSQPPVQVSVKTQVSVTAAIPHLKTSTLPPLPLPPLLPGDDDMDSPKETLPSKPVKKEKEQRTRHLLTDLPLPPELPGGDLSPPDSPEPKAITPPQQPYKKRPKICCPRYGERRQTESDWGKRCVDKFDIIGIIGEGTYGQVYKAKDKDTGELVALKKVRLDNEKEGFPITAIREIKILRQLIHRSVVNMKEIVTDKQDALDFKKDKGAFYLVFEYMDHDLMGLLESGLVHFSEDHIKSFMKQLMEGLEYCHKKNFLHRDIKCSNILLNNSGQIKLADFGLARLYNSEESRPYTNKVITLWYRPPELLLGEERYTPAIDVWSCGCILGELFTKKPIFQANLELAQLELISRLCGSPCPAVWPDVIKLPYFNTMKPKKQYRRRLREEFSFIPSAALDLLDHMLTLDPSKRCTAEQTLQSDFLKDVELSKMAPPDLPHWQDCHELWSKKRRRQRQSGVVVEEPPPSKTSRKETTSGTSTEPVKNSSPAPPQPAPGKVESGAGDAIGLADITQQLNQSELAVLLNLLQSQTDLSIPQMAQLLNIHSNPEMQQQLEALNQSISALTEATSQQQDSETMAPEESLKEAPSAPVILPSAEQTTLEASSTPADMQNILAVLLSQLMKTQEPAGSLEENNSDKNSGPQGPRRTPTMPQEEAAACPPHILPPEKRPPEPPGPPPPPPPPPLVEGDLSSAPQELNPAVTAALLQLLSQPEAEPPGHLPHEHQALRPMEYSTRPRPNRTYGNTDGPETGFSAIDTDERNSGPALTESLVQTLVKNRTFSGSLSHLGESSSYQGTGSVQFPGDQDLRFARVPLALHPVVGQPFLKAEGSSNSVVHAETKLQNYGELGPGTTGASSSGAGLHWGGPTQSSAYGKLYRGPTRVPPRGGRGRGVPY
Sequence (O75909 whole entry partner): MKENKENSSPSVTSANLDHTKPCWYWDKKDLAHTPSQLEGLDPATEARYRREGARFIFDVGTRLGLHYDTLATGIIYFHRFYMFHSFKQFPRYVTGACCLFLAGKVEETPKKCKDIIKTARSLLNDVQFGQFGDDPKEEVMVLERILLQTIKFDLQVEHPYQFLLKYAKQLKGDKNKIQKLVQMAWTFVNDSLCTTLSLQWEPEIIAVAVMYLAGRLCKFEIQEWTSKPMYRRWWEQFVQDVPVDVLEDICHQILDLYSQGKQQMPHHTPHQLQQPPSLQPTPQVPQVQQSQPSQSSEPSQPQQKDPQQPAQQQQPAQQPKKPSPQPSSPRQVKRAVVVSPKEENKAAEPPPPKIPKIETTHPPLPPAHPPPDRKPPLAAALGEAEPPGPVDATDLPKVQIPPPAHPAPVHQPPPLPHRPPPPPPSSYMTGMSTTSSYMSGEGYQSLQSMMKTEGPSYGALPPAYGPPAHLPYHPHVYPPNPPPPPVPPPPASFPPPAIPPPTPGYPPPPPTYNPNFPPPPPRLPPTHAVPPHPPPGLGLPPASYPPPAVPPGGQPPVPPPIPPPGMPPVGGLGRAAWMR
Experiment: CDK12 nuclear protein level: immunofluorescence/high content analysis (CAL-120)
Format: cell-based
Conditions: CAL-120 cells, 24 h, immunofluorescence; 50% reduction of nuclear CDK12 staining intensity; median; read-out: CDK12 degradation IF, DC50- [mol/l] (median)
assay_endpoint: DC50 (nM)

>  <molecule>
CN1CCN(c2nc(NCc3nc4ccccc4[nH]3)n3ncc(C4CC4(F)F)c3n2)CC1 (centres unmarked)

>  <DC50 [nM]>
7.03

$$$$

P = C[C@@H]1CN(c2nc(NCc3nnc(-c4ccccc4)[nH]3)n3ncc(Br)c3n2)C[C@H](C)N1
Q = Fc1ccccc1-c1nnc(CNc2nc(N3CCOCC3)nc3c(Br)cnn23)[nH]1
Pick one, P or Q : lowest reported DC50. Answer format: the label of the selected item.
P

a = Clc1cnn2c(NCc3nc4ccccc4[nH]3)nc(N3CCOCC3)nc12
b = C[C@H]1CN(c2nc(NCc3nnc(-c4ccccc4)[nH]3)n3ncc(Br)c3n2)CCN1C.O=CO [Example 122, formate]
Pick one, a or b : lowest reported DC50. Answer format: the label of the selected item.
b
(b: 2.47 nM, a: 5.05 nM)

---

System: CAL-120, human breast adenocarcinoma cells
Experiment: Proliferation assay CAL-120 (crystal violet, 4 days)
Assay type: cell-based
Conditions: Homo sapiens, CAL-120, 96 h, CAL-120 cells, median, read-out: Prolif-CAL-120, IC50-[mol/l] (median)
pIC50: −log10 of the molar value.
assay_endpoint: pIC50

>  <structure_as_smiles>
Fc1cc(F)cc(-c2nnc(CNc3nc(N4CCOCC4)nc4c(Br)cnn34)[nH]2)c1

>  <pIC50>
8.13

$$$$
>  <structure_as_smiles>
FC(F)n1cc(-c2cnn3c(NCc4nc5cc(Cl)c(Cl)cc5[nH]4)nc(N4CCOCC4)nc23)cn1

>  <pIC50>
7.91

$$$$
>  <structure_as_smiles>
Fc1c(Cl)ccc2[nH]c(CNc3nc(N4CCOCC4)nc4c(Br)cnn34)nc12

>  <pIC50>
8.53

$$$$

A = Brc1cnn2c(NCc3nc4ccccc4[nH]3)nc(N3CC4(COC4)C3)nc12
B = FC(F)(F)c1cnn2c(NCc3nc4cc(Cl)c(Cl)cc4[nH]3)nc(N3CCOCC3)nc12
Pick one, A or B : lowest reported pIC50. Answer format: the label of the selected item.
A
(A: 6.92, B: 7.96)

I = CO[C@@H]1CCN(c2nc(NCc3nc4ccccc4[nH]3)n3ncc(Br)c3n2)C1
II = Brc1cnn2c(NCc3nc4ccccc4[nH]3)nc(N3C[C@H]4CN[C@H]4C3)nc12.O=C(O)C(F)(F)F
III = Cc1cc2nc(CNc3nc(N4CCN(C)CC4)nc4c(Br)cnn34)[nH]c2cc1C
IV = OCC1CN(c2nc(NCc3nc4ccccc4[nH]3)n3ncc(Br)c3n2)C1
Task for the reader: rank each entry by its pIC50, from the minimum upward. Please write the labels in the order that was asked for.
I, IV, II, III
(I: 6.57, IV: 7.06, II: 7.48, III: 8.82)

---

Target: CDK12/CycK (Homo sapiens)
Sequence (Q9NYV4 with tags, fused parts or gaps): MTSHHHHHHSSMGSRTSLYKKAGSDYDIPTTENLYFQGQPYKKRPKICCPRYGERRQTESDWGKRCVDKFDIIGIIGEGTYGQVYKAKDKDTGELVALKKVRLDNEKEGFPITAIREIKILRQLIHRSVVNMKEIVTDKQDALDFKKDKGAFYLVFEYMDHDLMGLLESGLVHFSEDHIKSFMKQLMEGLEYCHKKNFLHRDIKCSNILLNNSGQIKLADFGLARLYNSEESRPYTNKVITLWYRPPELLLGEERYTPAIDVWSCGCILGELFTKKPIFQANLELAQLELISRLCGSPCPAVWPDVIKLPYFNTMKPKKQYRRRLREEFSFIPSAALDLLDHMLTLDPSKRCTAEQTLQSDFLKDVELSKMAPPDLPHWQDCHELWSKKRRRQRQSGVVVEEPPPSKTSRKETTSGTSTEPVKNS
Sequence (O75909 1-300 partner limits assumed): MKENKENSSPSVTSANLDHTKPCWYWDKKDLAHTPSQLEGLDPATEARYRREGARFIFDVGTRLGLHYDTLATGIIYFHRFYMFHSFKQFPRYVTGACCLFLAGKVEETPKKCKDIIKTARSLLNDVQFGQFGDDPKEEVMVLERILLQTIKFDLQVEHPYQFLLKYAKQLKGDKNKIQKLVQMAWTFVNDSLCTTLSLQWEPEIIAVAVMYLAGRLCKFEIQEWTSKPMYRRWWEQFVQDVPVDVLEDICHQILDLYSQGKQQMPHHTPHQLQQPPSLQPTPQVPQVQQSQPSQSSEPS
Experiment: CDK12/CycK high ATP kinase assay (TR-FRET, 2 mM ATP)
Settings: 2 mM ATP (high ATP); median; read-out: CDK12/CyclinK, 2 mM ATP (high ATP), IC50-[mol/l] (median)
pIC50: −log10 of the molar value.
# pIC50 annotations

>  <compound>
CN1CC2CN(c3nc(NCc4nc5ccccc5[nH]4)n4ncc(Br)c4n3)CC2C1 (stereo not drawn)

>  <pIC50>
< 4.70

$$$$
>  <compound>
CC1(N)CCN(c2nc(NCc3nc4ccccc4[nH]3)n3ncc(Br)c3n2)CC1

>  <pIC50>
< 4.70

$$$$

So what's the measured pIC50 for this one? `CN1CCN(c2nc(NCc3nc4cc(F)c(Cl)cc4[nH]3)n3ncc(C4CC4)c3n2)CC1`
< 4.70

---

Target: CDK2/CycE (Homo sapiens, UniProt P24941)
Assay: CDK2/CycE kinase assay (TR-FRET, 2 mM ATP)
Conditions: 2 mM ATP (high ATP); median; read-out: CDK2/CyclinE, 2 mM ATP (high ATP), IC50 (median)
assay_endpoint: IC50 (µM)

Known IC50 results, listed for orientation:
>  <compound>
Clc1ccccc1-c1cnc(CNc2nc(N3CCOCC3)nc3c(Br)cnn23)[nH]1

>  <scale_unit>
µM

>  <IC50>
1.78

$$$$
>  <compound>
Cc1cc2nc(CNc3nc(N4CC5CCC(C4)N5)nc4c(Br)cnn34)[nH]c2cc1C

>  <scale_unit>
µM

>  <IC50>
2.86

$$$$
>  <compound>
CO[C@H]1CCN(c2nc(NCc3nc4ccccc4[nH]3)n3ncc(Br)c3n2)C1

>  <scale_unit>
µM

>  <IC50>
14.6

$$$$
>  <compound>
C[C@@H]1CCCCN1c1nc(NCc2nc3ccccc3[nH]2)n2ncc(Br)c2n1

>  <scale_unit>
µM

>  <IC50>
1.25

$$$$
>  <compound>
CN1CCN(c2nc(NCc3nc4ccccc4[nH]3)n3ncc(Br)c3n2)C(CO)C1 (stereo not drawn) [Example 155]

>  <scale_unit>
µM

>  <IC50>
9.28

$$$$
>  <compound>
Brc1cnn2c(NCc3ncc(-c4cccnc4)[nH]3)nc(N3CCOCC3)nc12

>  <scale_unit>
µM

>  <IC50>
4.84

$$$$
>  <compound>
CC[C@H](COC)Nc1nc(NCc2nc3ccccc3[nH]2)n2ncc(Br)c2n1

>  <scale_unit>
µM

>  <IC50>
10.5

$$$$
>  <compound>
Fc1cccc(-c2nnc(CNc3nc(N4CCNCC4)nc4c(Br)cnn34)[nH]2)c1

>  <scale_unit>
µM

>  <IC50>
5.42

$$$$
>  <compound>
Brc1cnn2c(NCc3nc4ccccc4[nH]3)nc(N3C[C@H]4CC[C@@H]3CN4)nc12 (single isomer, unassigned) [Example 316]

>  <scale_unit>
µM

>  <IC50>
0.284

$$$$
>  <compound>
Cc1cccc2[nH]c(CNc3nc(N4CCN(C)CC4)nc4c(Br)cnn34)nc12

>  <scale_unit>
µM

>  <IC50>
13.4

$$$$

A = CC(C)c1cnn2c(NCc3nc4ccccc4[nH]3)nc(NCC(C)(C)O)nc12
B = CC1(O)CCN(c2nc(NCc3nc4ccccc4[nH]3)n3ncc(Br)c3n2)C1 (single isomer, unassigned) [Example 282]
C = Brc1cnn2c(NCc3nc4ccccc4[nH]3)nc(N3CCN4CCC3C4)nc12 (stereo not drawn)
Order these by IC50, descending, and give the full ranking. Please write the labels in the order that was asked for.
B, C, A
(B: 10.2 µM, C: 3.39 µM, A: 0.874 µM)

a = OC[C@@H]1CCCCN1c1nc(NCc2nc3c(F)cccc3[nH]2)n2ncc(C3CC3)c2n1
b = C[C@H]1CN(c2nc(NCc3nnc(-c4ccccc4)[nH]3)n3ncc(Br)c3n2)CCN1C.O=CO [Example 122, formate]
Pick one, a or b : lowest reported IC50. Answer format: the label of the selected item.
a
(a: 0.761 µM, b: 6.72 µM)

I = Cc1cc2nc(CNc3nc(N4CCOCC4)nc4c(Br)cnn34)[nH]c2cc1C
II = CN(CC(C)(C)O)c1nc(NCc2nc3cc(F)c(F)cc3[nH]2)n2ncc(C3CC3)c2n1
Pick one, I or II : lowest reported IC50. Answer format: the label of the selected item.
I
(I: 1.16 µM, II: 12.1 µM)

1 = CN[C@H]1CCN(c2nc(NCc3nc4ccccc4[nH]3)n3ncc(Br)c3n2)C1
2 = CC[C@H](CO)Nc1nc(NCc2nc3ccccc3[nH]2)n2ncc(Br)c2n1
Pick one, 1 or 2 : lowest reported IC50. Answer format: the label of the selected item.
2
(2: 0.885 µM, 1: 13.3 µM)

---

Target: CDK2/CycE (Homo sapiens, UniProt P24941)
Experiment: CDK2/CycE kinase assay (TR-FRET, 2 mM ATP)
Details: 2 mM ATP (high ATP); median; read-out: CDK2/CyclinE, 2 mM ATP (high ATP), IC50 (median)
pIC50: −log10 of the molar value.
# pIC50 annotations

Known pIC50 results, listed for orientation:
>  <compound>
COc1cccc2[nH]c(CNc3nc(N4C[C@@H](C)N[C@@H](C)C4)nc4c(C5CC5)cnn34)nc12 [Example 212]

>  <assay_system>
CDK2/CycE (Homo sapiens, UniProt P24941)

>  <result>
< 4.72

$$$$
>  <compound>
CN1CCN(c2nc(NCc3nc4ccccc4[nH]3)n3ncc(CC(F)(F)F)c3n2)CC1 [Example 436]

>  <assay_system>
CDK2/CycE (Homo sapiens, UniProt P24941)

>  <result>
< 4.70

$$$$
>  <compound>
Cn1cc(-c2cnn3c(NCc4nc5c(F)c(F)ccc5[nH]4)nc(N4CCOCC4)nc23)cn1 [Example 418]

>  <assay_system>
CDK2/CycE (Homo sapiens, UniProt P24941)

>  <result>
< 4.70

$$$$
>  <compound>
Fc1cc2nc(CNc3nc(N4CCOCC4)nc4c(C(F)(F)F)cnn34)[nH]c2cc1F [Example 333]

>  <assay_system>
CDK2/CycE (Homo sapiens, UniProt P24941)

>  <result>
< 4.70

$$$$
>  <compound>
Fc1cccc2[nH]c(CNc3nc(N4C[C@@H]5CCCN[C@@H]5C4)nc4c(C5CC5)cnn34)nc12 [Example 187]

>  <assay_system>
CDK2/CycE (Homo sapiens, UniProt P24941)

>  <result>
< 4.70

$$$$

Now examine the next entry.
So what's the measured pIC50 for this one? Fc1ccc2[nH]c(CNc3nc(N4CCOCC4)nc4c(CC(F)F)cnn34)nc2c1F.O=C(O)C(F)(F)F [Example 425]
< 4.70
